Assay: NCI Yeast Anticancer Drug Screen. Data for the mlh1 rad18 strain (AID 175)
Conditions: S. cerevisiae mlh1 rad18 strain growth inhibition; at 5.0 µM (retest, dose inferred, filed as 0.5)
This is part of a sample that, as a whole, favours compounds with a hit. Of some 79,000 tested, about 15% had one in any assay. Activity calls are given as the source filed them. No stated cut-off is given here; in the data, active means growth inhibition above about 70%; inactive means the rest.
Parameter call: string, one of True for active, False for inactive

Reference set (8 entries):
| compound | cat |
| --- | --- |
| O=[N+]([O-])c1cc(Cl)cc(C(c2cc(Cl)cc([N+](=O)[O-])c2O)C(Cl)(Cl)Cl)c1O | False |
| Cc1ccsc1/C=N/Nc1cc(C)c2cccc(C)c2n1 | False |
| Nc1ccccc1/C=C/c1c[nH]c2ccccc12 | False |
| N#CCc1ccccc1-c1cccc2ccccc12 | False |
| CC(/C=C1\CCC(CN(C)C)C1=O)c1cccc(Br)c1 (centres undefined) | False |
| O=C(CC(=O)c1ccccc1)CC(=O)c1cccc(Cl)c1 | False |
| [O-]c1c(-c2cccc3ccccc23)sc(-c2cccc3ccccc23)[n+]1-c1ccccc1 | False |
| Nc1ccc(CSc2ccc(Cl)cc2)cc1Cl | False |

Req: Could you check what this test reported for `Nc1nnc2nc(C(C(=O)c3ccccc3Cl)c3nc4nnc(N)n4[nH]c3=O)c(=O)[nH]n12` ?
Resp: False

Req: Assay outcome for COc1ccc(NC(=O)CCC(=O)C(C)C(=O)c2ccccc2)cc1 (centres undefined) : what was it?
Resp: False

Req: Kindly provide the recorded test outcome for the following compound: `O=S(=O)(CCNCCCCC1CCCCC1)SCCNCCCCC1CCCCC1`
Resp: False

Req: Fill in: this test's call for `CCc1cccc(C)c1NC(=O)C1=C(C)NC(C)=C(C(=O)Nc2c(C)cccc2CC)C1c1ccc2c(c1)OCO2` is ___
Resp: False

Req: Any idea what this test logged for NC(=O)N/N=C/C(O)C(O)C(O)C(O)CO (centres undefined) ?
Resp: False

Req: Record request — test call for `COc1ccc2c(c1)CN([C@@H](C)[C@H]1CC[C@H]3[C@@H]4CC[C@H]5C[C@@H](O)CC[C@]5(C)[C@H]4CC[C@]13C)CO2`
Resp: True

Attribution: PubChem BioAssay (NCI)
